Origin of the recorded values: patent US7074888B1

target_or_test_system: monoclonal antibody C-34
experiment_description: clone count after phage biopanning on biotinylated C-34
# Frequency values compiled below
Answer with the value's number alone.

Reference set, count: 10
KKGRHHVTRV [C34 Clone SEQ ID NO:15] :: 22
PDRQVRLWVR [C34 Clone SEQ ID NO:12] :: 1
FKWREWRGKL [C34 Clone SEQ ID NO:11] :: 1
MHGHRRPGLA [C34 Clone SEQ ID NO:18] :: 1
YLGWRYSEYV [C34 Clone SEQ ID NO:4] :: 7
GYHWWRNWEY [C34 Clone SEQ ID NO:8] :: 2
MNWKHWRARH [C34 Clone SEQ ID NO:10] :: 1
LSTWRYFEYV [C34 Clone SEQ ID NO:3] :: 14
AWNWRYREYV [C34 Clone SEQ ID NO:1] :: 52
RVLRHWHPRT [C34 Clone SEQ ID NO:13] :: 1

Now consider the entry below.
-- ask Give the measured Frequency for GGVCKCWQCL [C34 Clone SEQ ID NO:16]
-- reply 1
